# credit: patent US9873693B2

Target or system UniProtKB O15530; recorded quantity IC50.
Sequence (O15530 51-360): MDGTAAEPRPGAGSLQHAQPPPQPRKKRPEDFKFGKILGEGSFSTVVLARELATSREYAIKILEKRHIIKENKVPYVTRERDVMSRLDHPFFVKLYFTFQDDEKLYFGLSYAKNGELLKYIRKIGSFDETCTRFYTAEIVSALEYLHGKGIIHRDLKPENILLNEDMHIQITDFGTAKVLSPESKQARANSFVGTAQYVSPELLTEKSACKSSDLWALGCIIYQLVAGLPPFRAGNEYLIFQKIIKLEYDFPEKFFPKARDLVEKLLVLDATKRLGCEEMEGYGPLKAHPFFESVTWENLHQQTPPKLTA

Sample answers from the record:
NC(=O)C(NC(=O)c1cccn(Cc2ccc(F)c(F)c2)c1=O)c1ccc(-c2c[nH]c3ncccc23)s1 (stereo not shown)    < 500 nM
O=C(NCc1cc(-c2c[nH]c3ncccc23)ccn1)c1cccn(Cc2ccc(F)c(F)c2)c1=O    < 500 nM
O=C(NCCSc1ccc2[nH]c(=O)[nH]c2c1)c1cccn(Cc2ccc(F)c(F)c2)c1=O    500 to 10000 nM
CC(C)Oc1cc(CNC(=O)c2cccn(Cc3ccc(F)c(F)c3)c2=O)cc(-c2c[nH]c3ncccc23)c1    < 500 nM
O=C(NC(COc1ccc2[nH]c(=O)[nH]c2c1)c1ccc(F)cc1)c1cccn(Cc2ccc(F)c(F)c2)c1=O (stereo not shown)    < 500 nM
COC(=O)C[C@H](NC(=O)c1cccn(Cc2ccc(F)c(F)c2)c1=O)c1nnc(-c2c[nH]c3ncccc23)o1    < 500 nM

Q: Param readout= IC50; system= UniProtKB O15530; entry= O=C(NCc1cccc(-c2c[nH]c3cccnc23)c1)c1cccn(Cc2ccc(F)c(F)c2)c1=O ; returns value.
A: 500 to 10000 nM

Q: Please state recorded IC50 (tested on UniProtKB O15530) of O=C(NCc1ccc(-c2c[nH]c3nccc(Cl)c23)s1)c1cccn(Cc2ccc(F)c(F)c2)c1=O
A: < 500 nM

Q: Request - read-out IC50 | tested on UniProtKB O15530 | compound O=C(NCc1cccc(-c2c[nH]c3ncccc23)n1)c1cccn(Cc2ccc(F)c(F)c2)c1=O
A: < 500 nM

Q: Record O=C(NCc1noc(-c2c[nH]c3ncccc23)n1)c1cccn(Cc2cccc(Cl)c2)c1=O : what is its IC50 with UniProtKB O15530?
A: < 500 nM

Q: Request body: readout IC50, system UniProtKB O15530, query COc1ccnc(NCCC#CCNC(=O)c2cccn(Cc3ccc(F)c(F)c3)c2=O)n1 . Return the value.
A: < 500 nM

Q: UniProtKB O15530 / IC50 / O=C(NC1CCCc2ccc(-c3c[nH]c4ncccc34)cc21)c1cccn(Cc2ccc(F)c(F)c2)c1=O (stereo not shown) : value?
A: < 500 nM

Q: Notebook: pull reported IC50 for UniProtKB O15530, entry O=C(NCc1noc(-c2c[nH]c3ncccc23)n1)c1cccn(Cc2ccc(Cl)c(Cl)c2)c1=O
A: < 500 nM
